- System: RSK1 (Homo sapiens)
- Construct: purchased Perkin Elmer (ProfilerPro assay kit 1)
- Sequence (Q15418 whole entry): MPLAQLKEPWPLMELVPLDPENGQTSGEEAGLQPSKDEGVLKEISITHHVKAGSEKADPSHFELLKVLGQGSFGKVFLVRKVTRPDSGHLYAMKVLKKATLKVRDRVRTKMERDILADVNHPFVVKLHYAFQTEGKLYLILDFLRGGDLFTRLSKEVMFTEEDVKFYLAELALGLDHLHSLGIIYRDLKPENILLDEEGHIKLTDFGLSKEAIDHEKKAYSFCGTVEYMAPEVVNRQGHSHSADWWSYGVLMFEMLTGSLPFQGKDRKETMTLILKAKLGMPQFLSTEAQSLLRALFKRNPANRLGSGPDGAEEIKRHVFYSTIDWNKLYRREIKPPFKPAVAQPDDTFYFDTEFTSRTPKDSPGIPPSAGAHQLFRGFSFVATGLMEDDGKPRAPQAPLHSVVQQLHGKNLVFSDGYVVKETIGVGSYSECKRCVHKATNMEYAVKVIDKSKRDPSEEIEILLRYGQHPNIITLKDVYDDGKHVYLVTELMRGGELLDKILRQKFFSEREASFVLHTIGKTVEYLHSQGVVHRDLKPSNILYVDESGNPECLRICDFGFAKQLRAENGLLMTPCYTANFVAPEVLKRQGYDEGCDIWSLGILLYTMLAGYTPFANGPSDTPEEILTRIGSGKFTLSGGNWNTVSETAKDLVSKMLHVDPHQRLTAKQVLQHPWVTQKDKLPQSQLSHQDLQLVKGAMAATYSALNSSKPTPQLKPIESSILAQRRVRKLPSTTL
- Experiment description: 26-kinase panel mobility shift assay, single concentration
- Assay type: biochemical
- Condition label: read-out: % Inhibition RSK1
In this section we review reported inhibition at 100 µM values for a set of compounds.
Could you write the number and then its unit?

>  <Compound structure string>
Nc1ccc[nH]c1=O

>  <System>
RSK1 (Homo sapiens)

>  <inhibition at 100 µM>
19%

$$$$
>  <Compound structure string>
COc1ncc(-c2ccncc2)cc1N

>  <System>
RSK1 (Homo sapiens)

>  <inhibition at 100 µM>
23%

$$$$
>  <Compound structure string>
Cc1nc(O)c(N)cc1-c1ccncc1

>  <System>
RSK1 (Homo sapiens)

>  <inhibition at 100 µM>
17%

$$$$
>  <Compound structure string>
Nc1cc(-c2ccnc(NC3CC3)n2)c[nH]c1=O

>  <System>
RSK1 (Homo sapiens)

>  <inhibition at 100 µM>
89%

$$$$
>  <Compound structure string>
CNc1nccc(-c2c[nH]c(=O)c(N)c2)n1

>  <System>
RSK1 (Homo sapiens)

>  <inhibition at 100 µM>
91%

$$$$
>  <Compound structure string>
Cn1cc(-c2c[nH]c(=O)c(N)c2)cn1

>  <System>
RSK1 (Homo sapiens)

>  <inhibition at 100 µM>
89%

$$$$

Prompt: Reported inhibition at 100 µM for RSK1 (Homo sapiens), given "Nc1cc(-c2ccnc3ccccc23)c[nH]c1=O" ?
Response: 10%
